Molecular target: PARP-1 (Homo sapiens)
Sequence (P09874 whole entry): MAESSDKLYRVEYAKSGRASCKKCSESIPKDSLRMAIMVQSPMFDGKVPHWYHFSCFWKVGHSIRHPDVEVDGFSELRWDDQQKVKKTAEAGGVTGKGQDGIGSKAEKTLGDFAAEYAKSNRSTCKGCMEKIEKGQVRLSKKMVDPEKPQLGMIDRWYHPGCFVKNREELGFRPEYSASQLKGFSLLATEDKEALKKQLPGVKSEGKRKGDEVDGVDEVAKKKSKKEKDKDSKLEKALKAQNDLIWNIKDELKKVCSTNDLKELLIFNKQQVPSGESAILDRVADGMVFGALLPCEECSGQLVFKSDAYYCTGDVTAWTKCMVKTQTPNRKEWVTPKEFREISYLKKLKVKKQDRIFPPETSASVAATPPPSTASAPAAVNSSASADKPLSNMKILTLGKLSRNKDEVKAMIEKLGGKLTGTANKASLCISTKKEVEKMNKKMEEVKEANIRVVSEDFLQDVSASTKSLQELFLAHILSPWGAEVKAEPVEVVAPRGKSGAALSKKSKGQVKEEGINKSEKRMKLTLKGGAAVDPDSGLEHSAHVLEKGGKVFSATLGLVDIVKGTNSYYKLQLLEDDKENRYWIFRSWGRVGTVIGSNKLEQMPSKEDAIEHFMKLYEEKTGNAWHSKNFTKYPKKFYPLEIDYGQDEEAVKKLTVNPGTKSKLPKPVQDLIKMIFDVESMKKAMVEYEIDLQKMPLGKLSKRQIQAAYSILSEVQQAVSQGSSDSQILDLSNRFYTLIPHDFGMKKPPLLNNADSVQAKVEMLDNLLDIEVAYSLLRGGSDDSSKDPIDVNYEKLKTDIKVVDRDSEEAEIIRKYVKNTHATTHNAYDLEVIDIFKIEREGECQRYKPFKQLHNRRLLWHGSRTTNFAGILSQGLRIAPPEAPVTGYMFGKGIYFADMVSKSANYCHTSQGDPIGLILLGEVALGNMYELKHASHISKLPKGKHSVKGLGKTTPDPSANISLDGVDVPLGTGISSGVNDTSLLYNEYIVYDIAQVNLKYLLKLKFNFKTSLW
Experiment: PARP-1 auto-PARylation activity assay in cells
Format: cell-based
Details: FIG. 5F, nonlinear regression; read-out: IC50 of dose curves, quantification of western blot (ADPr normalized to PARP-1)
readout-kind: pIC50
Entry type: numeric. Quantity: pIC50, the -log10 of concentration in molar units.

Query :: Dear colleague, I am looking for the recorded pIC50 of the following compound: C[C@H]1Cn2c(nnc2C(C)(F)F)CN1C(=O)c1cc(Cc2n[nH]c(=O)c3ccccc23)ccc1F
Result :: 8.65

---

Molecular target: PARP-1 (Homo sapiens)
Experiment: PARP-1 auto-PARylation activity assay in cells
Details: 30 min inhibitor, then PARG inhibitor PDD00017273; read-out: EC50 inhibiting PARP-1 PARylation in HEK 293 cells
readout-kind: EC50

Query :: Which measured EC50 value corresponds to C[C@H]1Cn2c(nnc2C(C)(F)F)CN1C(=O)c1cc(Cc2n[nH]c(=O)c3ccccc23)ccc1F [Pip6] ?
Result :: 2.3 nM

Each recorded value in this set is attributed to patent US20240317762A1.
